# Tested on: pigweed
# Test protocol: Test C postemergence
# Type: in vivo, Amaranthus retroflexus
# Assay conditions: 125 g ai/ha, postemergence; visual rating, scale 0 to 100 (0 no effect, 100 complete control)
Measured parameter: Plant response rating, Pigweed

Example results:
Molecule | Experimental target | Plant response rating, Pigweed
Fc1cnc(Oc2cccc(C(F)F)c2-n2cc(C(F)(F)F)cn2)nc1 [Compound 164] | pigweed | 80
N#Cc1cn(-c2c(C#N)cccc2Oc2ncc(Cl)cn2)nn1 [Compound 273] | pigweed | 90
N#Cc1cnn(-c2c(Oc3ncc(F)cn3)cccc2C(F)F)c1 [Compound 240] | pigweed | 75
FC(F)(F)c1cnn(-c2c(Br)cccc2Oc2ncc(Cl)cn2)c1 [Compound 191] | pigweed | 98
Clc1cnc(Oc2cccc(Br)c2-n2cc(Cl)cn2)nc1 [Compound 221] | pigweed | 85

Form field - read-out: Plant response rating, Pigweed; system: pigweed; submitted item: Clc1cnc(Oc2cccc(Br)c2-n2cc(I)nn2)nc1 [Compound 117]
90

The reported numbers originate from patent US9695155B2.
